EC50 listing for selected compounds.
System: BJ
assayInfo: BJ-TERT fibroblast viability loss – cell-based, RAS-independent, luminescence, dose response (AID 1933)
Type: functional
measurementConditions: Homo sapiens
The source made the active and inactive calls. Cut-off read from the data, not from the text of the source: actives have a measured EC50 and inactives only a lower limit.

compound	testedOn	recordedMeasurement
COc1ccccc1/C=N/N1C(=O)C(CC(=O)Nc2ccc([N+](=O)[O-])cc2OC)S/C1=N\c1cccc(C)c1C (stereo not given)	BJ	10.6 µM (active)

What value of EC50 has been reported for the following compound? CC(C)Nc1nc(Cl)nc(N(C#N)CN2C(=O)c3ccccc3C2=O)n1
10.1 µM (active)

Report EC50 for CN1C/C(=C/c2ccncc2)C(=O)/C(=C/c2ccncc2)C1 please.
3.82 µM (active)

Which EC50 is listed for COc1ccc(/C=N\NC(=O)c2c(C)nc3ccc(Br)cn23)cc1 ?
3.13 µM (active)

EC50 for CCc1ccc(S(=O)(=O)/N=C2\C=C(Nc3ccc(O)cc3)C(=O)c3ccccc32)cc1 ?
1.51 µM (active)
